# IC50 values compiled below
Target: histone deacetylase (HDAC Enzyme)
Assay: Inhibition of Histone Deacetylase Enzymatic Activity (Boc-Lys(Ac)-AMC, Fluor-de-Lys developer)
Type: biochemical
Conditions: read-out: HDAC Inhibtion (IC50 μM) HDAC Enzyme

Illustrative cases are given below, each with its answer.
COMPOUND	PARAMETER	RESULT
CS(=O)(=O)c1cccc2c1Oc1ccccc1N=C2c1ccc(C(=O)NO)cc1	IC50	< 0.05 µM
COc1cccc2c1Oc1ccccc1N=C2c1ccc(C(=O)NO)cc1	IC50	0.05 to 0.1 µM
C[S+]([O-])c1cccc2c1Oc1ccccc1N=C2c1ccc(C(=O)NO)cc1 (stereo not drawn)	IC50	0.05 to 0.1 µM
COc1cccc2c1Oc1ccc(C(F)(F)F)cc1N=C2c1ccc(C(=O)NO)cc1	IC50	0.1 to 1 µM

Continue with the next compound.
Req: What value of IC50 has been reported for the following compound? `O=C(NO)c1ccc(C2=Nc3ccccc3S(=O)(=O)c3ccccc32)cc1`
Resp: 1 to 10 µM

* * *

# IC50 values compiled below
Target: histone deacetylase (HDAC Enzyme)
Test: Inhibition of Histone Deacetylase Enzymatic Activity (Boc-Lys(Ac)-AMC, Fluor-de-Lys developer)
Assay type: biochemical
Settings: Table 9; read-out: HDAC Inhibition (IC50 μM) HDAC Enzyme

MOLECULE	IC50
O=C(NO)c1cnc(N2C[C@@H]3C[C@H]2CN3c2cccc3nonc23)nc1	< 0.05 µM

Req: # get_value(readout= IC50, system= histone deacetylase (HDAC Enzyme)) for Cc1cccc(N2CC3CC2CN3c2ccc(C(=O)NO)cc2)c1 (stereo not shown)
Resp: 0.1 to 1 µM

Req: # get_value(readout= IC50, system= histone deacetylase (HDAC Enzyme)) for `Cc1ccc(N2C[C@@H]3C[C@H]2CN3c2ncc(C(=O)NO)cn2)cc1`
Resp: < 0.05 µM

Req: # get_value(readout= IC50, system= histone deacetylase (HDAC Enzyme)) for `Cc1ccc(N2C[C@@H]3C[C@H]2CN3c2ccc(C(=O)NO)cc2)cc1`
Resp: 0.1 to 1 µM

Req: # get_value(readout= IC50, system= histone deacetylase (HDAC Enzyme)) for `O=C(NO)c1cnc(N2C[C@@H]3C[C@H]2CN3c2cccc(C(F)(F)F)c2)cn1`
Resp: 0.1 to 1 µM

* * *

Molecular target: histone deacetylase (HDAC Enzyme)
Assay: Inhibition of Histone Deacetylase Enzymatic Activity (Boc-Lys(Ac)-AMC, Fluor-de-Lys developer)
Format: biochemical
Details: read-out: HDAC Inhibtion (IC50 μM) HDAC Enzyme
PARAMETER: IC50

Illustrative cases are given below, each with its answer.
MOLECULE	IC50
O=C(NO)c1ccc(C2=Nc3ccsc3Oc3ccccc32)cc1	0.1 to 1 µM
O=C(NO)c1ccc(C2=Nc3c(F)cccc3Oc3ccccc32)cc1	0.05 to 0.1 µM
O=C(NO)c1ccc(C2Nc3ccccc3Oc3ccccc32)cc1 (centres unmarked)	< 0.05 µM
O=C(NO)c1ccc(C2=Nc3ccccc3Oc3c(OC(F)(F)F)cccc32)cc1	0.1 to 1 µM
O=C(NO)c1ccc(-c2ccc3c(c2)C(N2CCOCC2)=Nc2ccccc2O3)cc1	< 0.05 µM
Cc1cccc2c1Oc1ccccc1C(c1ccc(C(=O)NO)cc1)=N2	0.1 to 1 µM
CN(O)C(=O)c1ccc(C2=Nc3ccccc3N(C3CC3)c3ccccc32)cc1	1 to 10 µM
COc1ccc2c(c1)C(c1ccc(C(=O)NO)cc1)=Nc1ccccc1O2	0.1 to 1 µM

Req: What value of IC50 has been reported for the following molecule? `O=C(NO)c1ccc(C2=Nc3ccccc3Oc3ccccc32)c(F)c1`
Resp: 1 to 10 µM

Req: What value of IC50 has been reported for the following molecule? `N#Cc1ccc2c(c1)N=C(c1ccc(C(=O)NO)cc1)c1ccccc1O2`
Resp: 0.05 to 0.1 µM

Req: What value of IC50 has been reported for the following molecule? CN1c2ccccc2Oc2ccccc2C1c1ccc(C(=O)NO)cc1 (centres unmarked)
Resp: 0.1 to 1 µM

Req: What value of IC50 has been reported for the following molecule? `COc1cccc2c1C(c1ccc(C(=O)NO)cc1)=Nc1ccccc1O2`
Resp: 0.1 to 1 µM

Req: What value of IC50 has been reported for the following molecule? `COc1cc(F)cc2c1Oc1ccccc1N=C2c1ccc(C(=O)NO)cc1`
Resp: < 0.05 µM

Req: What value of IC50 has been reported for the following molecule? `O=C(NO)c1ccc2c(c1)N=C(c1ccncc1)c1ccccc1O2`
Resp: 0.1 to 1 µM

Req: What value of IC50 has been reported for the following molecule? O=C(NO)c1ccc(C2=Nc3ccccc3[S+]([O-])c3ccccc32)cc1 (centres unmarked)
Resp: 0.1 to 1 µM

Req: What value of IC50 has been reported for the following molecule? `O=C(NO)c1ccc(C2=Nc3ccccc3Oc3ccc(F)cc32)cc1`
Resp: < 0.05 µM
